Target: BRM (Homo sapiens)
Experiment: ATPase catalytic activity assay of BRM (ADP-Glo)
Assay type: biochemical
Each entry below lists one item and its recorded BRM Max % Inhibition value.

See these solved cases before continuing.
COc1cccc(-c2csc(NC(=O)CNC(=O)c3ccc4c(c3)C(C)(F)CCCO4)n2)c1 (stereo in doubt) [Compound 324] : >90%
CC(C)S(=O)(=O)c1cccc(C(=O)NCC(=O)Nc2nc(-c3cccc(-c4cccc(C#N)n4)n3)cs2)c1 : >70%
C[C@@H]1CN(c2cccc(-c3csc(NC(=O)CNC(=O)c4ccc5c(c4)[C@]4(COC5)CC4(F)F)n3)n2)C[C@H](C)O1 : >90%

Query string: Answer with reported BRM Max % Inhibition of C[C@@H]1CN(c2cccc(-c3csc(NC(=O)CNC(=O)c4ccc(Cl)c(C(C)(C)CO)c4)n3)n2)C[C@H](C)O1
Result string: >95%

Query string: Assign BRM Max % Inhibition to the following record: C[C@@]1(C#N)COCc2ccc(C(=O)NCC(=O)Nc3nc(-c4cccc(N5CCC56COC6)c4)cs3)cc21
Result string: >95%

Query string: In one line, give reported BRM Max % Inhibition of the entry C[C@@H]1CN(c2cccc(-c3csc(NC(=O)CNC(=O)c4ccnc(C(C)(C)CO)c4)n3)c2)C[C@H](C)O1 .
Result string: >95%

Query string: Complete the entry with BRM Max % Inhibition for COc1nccc(-c2cccc(-c3csc(NC(=O)CNC(=O)c4cccc(S(=O)(=O)C(C)C)c4)n3)n2)n1
Result string: >95%

Query string: Answer with the recorded BRM Max % Inhibition of C[C@@H]1CN(c2cccc(-c3csc(NC(=O)CNC(=O)c4cccc(C5(F)COC5)c4)n3)c2)C[C@H](C)O1 only.
Result string: >90%

Query string: Please indicate BRM Max % Inhibition recorded for C[C@@H]1CN(c2cccc(-c3csc(NC(=O)CNC(=O)c4ccc5c(c4)[C@@](C)(C#N)COC5)n3)c2)C[C@H](C)O1
Result string: >80%

Query string: # return recorded BRM Max % Inhibition for entry C[C@]1(CO)CCc2ccc(C(=O)NCC(=O)Nc3nc(-c4cccc(-c5cnccn5)n4)cs3)cc21
Result string: >80%

Query string: Give the reported value of BRM Max % Inhibition for this record: CC(C)S(=O)(=O)c1cccc(C(=O)NCC(=O)Nc2nc(-c3cccc(N4CCOCC4)c3)cs2)c1
Result string: >80%

Query string: Read the entry Cc1cc(-c2cccc(-c3csc(NC(=O)CNC(=O)c4ccc5c(c4)[C@](C)(CN)CCC5)n3)c2)cc(C)n1 and write its reported BRM Max % Inhibition.
Result string: >80%

---

Target: BRG-1 (Homo sapiens)
Assay: ATPase catalytic activity assay of BRG-1 (ADP-Glo)
Type: biochemical
Conditions: ATPase catalytic activity, ADP-Glo; read-out: BRG1 Max % Inhibition
Measured Emax by item

Worked cases, Emax given:
Cc1cc(-c2cccc(-c3csc(NC(=O)CNC(=O)c4ccc(Cl)c(C(C)(C)CO)c4)n3)n2)ncn1 : > 95%
C[C@@H]1CN(c2cccc(-c3csc(NC(=O)CNC(=O)c4cccc([C@]5(F)C[C@@H](F)C5)c4)n3)n2)C[C@H](C)O1 : > 90%
C[C@@H]1CN(c2cccc(-c3csc(NC(=O)CNC(=O)c4cccc5c4OCC[C@]5(C)CO)n3)c2)C[C@H](C)O1 : > 30%
C[C@@]1(C#N)COCc2ccc(C(=O)NCC(=O)Nc3nc(-c4cc(F)cc(C5CCO5)c4)cs3)cc21 (some centres unmarked) : > 95%

Query string: State, in one line, measured Emax of C[C@@H]1CN(c2cccc(-c3csc(NC(=O)CNC(=O)c4ccc5c(c4)[C@](C#N)(CO)CC5)n3)n2)C[C@H](C)O1
Result string: > 95%

---

Biological target: BRG-1 (Homo sapiens, UniProt P51532)
Sequence (P51532 whole entry): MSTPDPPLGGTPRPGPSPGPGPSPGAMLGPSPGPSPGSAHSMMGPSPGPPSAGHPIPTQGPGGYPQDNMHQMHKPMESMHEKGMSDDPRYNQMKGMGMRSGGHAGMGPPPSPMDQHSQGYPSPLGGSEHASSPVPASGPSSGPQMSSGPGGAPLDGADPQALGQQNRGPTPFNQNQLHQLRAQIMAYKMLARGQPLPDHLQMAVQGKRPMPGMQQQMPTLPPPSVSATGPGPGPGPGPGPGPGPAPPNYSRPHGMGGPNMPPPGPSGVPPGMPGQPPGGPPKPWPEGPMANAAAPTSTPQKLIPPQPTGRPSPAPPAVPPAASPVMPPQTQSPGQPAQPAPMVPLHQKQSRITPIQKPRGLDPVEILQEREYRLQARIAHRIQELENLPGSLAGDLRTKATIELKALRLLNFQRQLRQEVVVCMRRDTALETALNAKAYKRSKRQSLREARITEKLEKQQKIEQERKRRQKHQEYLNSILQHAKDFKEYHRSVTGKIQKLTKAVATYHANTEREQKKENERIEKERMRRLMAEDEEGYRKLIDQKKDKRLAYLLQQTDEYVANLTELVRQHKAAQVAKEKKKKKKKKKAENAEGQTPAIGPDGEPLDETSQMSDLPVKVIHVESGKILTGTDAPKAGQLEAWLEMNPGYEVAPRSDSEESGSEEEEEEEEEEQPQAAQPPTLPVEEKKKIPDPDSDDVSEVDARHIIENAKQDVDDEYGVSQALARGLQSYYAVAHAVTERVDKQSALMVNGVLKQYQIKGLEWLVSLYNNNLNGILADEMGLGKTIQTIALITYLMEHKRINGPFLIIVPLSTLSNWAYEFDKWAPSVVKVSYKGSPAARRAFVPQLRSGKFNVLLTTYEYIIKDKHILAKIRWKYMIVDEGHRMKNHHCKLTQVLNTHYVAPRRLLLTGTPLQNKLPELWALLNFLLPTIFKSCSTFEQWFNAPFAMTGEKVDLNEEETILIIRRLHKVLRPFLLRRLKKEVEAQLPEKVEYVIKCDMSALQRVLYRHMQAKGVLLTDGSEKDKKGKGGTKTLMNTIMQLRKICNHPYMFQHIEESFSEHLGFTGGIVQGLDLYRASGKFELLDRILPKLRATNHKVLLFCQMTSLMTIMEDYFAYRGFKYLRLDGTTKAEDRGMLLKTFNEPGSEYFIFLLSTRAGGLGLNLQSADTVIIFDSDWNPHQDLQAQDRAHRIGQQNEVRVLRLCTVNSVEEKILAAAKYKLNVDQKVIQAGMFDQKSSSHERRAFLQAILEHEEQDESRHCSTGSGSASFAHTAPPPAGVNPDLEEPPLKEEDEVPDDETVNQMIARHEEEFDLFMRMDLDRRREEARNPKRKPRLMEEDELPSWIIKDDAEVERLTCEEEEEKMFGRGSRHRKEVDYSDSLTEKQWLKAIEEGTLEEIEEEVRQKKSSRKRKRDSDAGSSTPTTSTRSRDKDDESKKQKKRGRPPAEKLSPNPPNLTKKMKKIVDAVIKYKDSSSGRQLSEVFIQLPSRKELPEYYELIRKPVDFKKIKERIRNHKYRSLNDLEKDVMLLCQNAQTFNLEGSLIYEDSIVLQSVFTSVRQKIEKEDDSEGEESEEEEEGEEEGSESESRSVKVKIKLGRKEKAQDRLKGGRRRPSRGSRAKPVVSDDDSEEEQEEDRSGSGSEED
Test: ATPase catalytic activity assay of BRG-1 (ADP-Glo)
Assay type: biochemical
Conditions: ATPase catalytic activity, ADP-Glo; read-out: BRG1 Max % Inhibition
Below, each entry is listed with its recorded Emax.

CC1(CO)CCc2ccc(C(=O)NCC(=O)Nc3nc(-c4ccn5ccnc5c4)cs3)cc21 (stereo in doubt) : > 50%
Cn1ccc2ccc(-c3csc(NC(=O)CNC(=O)c4cccc(C(C)(C)CN)c4)n3)cc2c1=O : > 40%
CN1C[C@@](C)(C#N)c2cc(C(=O)NCC(=O)Nc3nc(-c4cc(F)cc(N5CCC5)c4)cs3)ccc21 : > 95%
Cc1cc(-c2cccc(-c3csc(NC(=O)CNC(=O)c4cccc(C(C)(C)C(C)C)c4)n3)c2)cc(C)n1 : < 30%

Next, consider the following molecule.
Query string: Kindly indicate its recorded Emax. Item: C[C@@H]1CN(c2cccc(-c3csc(NC(=O)CNC(=O)c4ccc5c(c4)[C@@H](CO)CC5)n3)n2)C[C@H](C)O1
Result string: > 80%

---

# IC50 per record follows
Target: BRG-1 (Homo sapiens, UniProt P51532)
Test: ATPase catalytic activity assay of BRG-1 (ADP-Glo)
Format: biochemical
Settings: ATPase catalytic activity, ADP-Glo; read-out: BRG1 IC50 (μM)*

// worked examples, IC50 included
C[C@@H]1CN(c2cccc(-c3csc(NC(=O)CNC(=O)c4cccc([C@@H]5COC[C@H]5O)c4)n3)n2)C[C@H](C)O1 : > 5 µM
C[C@@H]1CN(c2cccc(-c3csc(NC(=O)CNC(=O)c4cc(C(C)(C)C)ncc4F)n3)c2)C[C@H](C)O1 : > 5 µM
COc1cccc(-c2csc(NC(=O)CNC(=O)c3ccc4c(c3)C(C)(F)CCCO4)n2)c1 (stereo in doubt) [Compound 325] : 0.1 to 1 µM
Cc1cc(C)c(C(C)(C)CN)cc1C(=O)NCC(=O)Nc1nc(-c2cccc(-c3ccncc3)c2)cs1 : > 5 µM
Cc1cc(C(=O)NCC(=O)Nc2nc(-c3cccc(-c4ccncc4)c3)cs2)cc(C(C)(C)CN)c1C : 1 to 5 µM
COC[C@H](NC(=O)c1cccc(C(C)(C)CN)c1)C(=O)Nc1nc(-c2cccc(-c3ccnc(C)c3)c2)cs1 : 0.1 to 1 µM

Query string: Given the compound Cn1cnc2ccc(-c3csc(NC(=O)CNC(=O)c4ccc5c(c4)[C@](C)(CO)CC5)n3)cc21 , write its reported IC50.
Result string: 1 to 5 µM

Query string: Identify measured IC50 associated with COc1cccc(-c2csc(NC(=O)CNC(=O)c3cc(F)c4c(c3)[C@](C)(C#N)COC4)n2)c1
Result string: 0.1 to 1 µM

Query string: Quote IC50 reported for CCOC(=O)N1CCCC(c2csc(NC(=O)CNC(=O)c3ccc4c(c3)[C@](C)(F)COC4)n2)C1 (stereo in doubt) please.
Result string: 0.1 to 1 µM

Query string: Give me measured IC50, please, for this compound: C[C@@H]1CN(c2cccc(-c3csc(NC(=O)CNC(=O)c4ccc5c(c4)[C@](C)(CO)CC5)n3)c2)C[C@H](C)O1
Result string: 1 to 5 µM

Query string: Identify measured IC50 corresponding to C[C@@]1(CO)CCc2ccc(C(=O)NCC(=O)Nc3nc(-c4cccc(-c5cccnc5O)n4)cs3)cc21
Result string: > 5 µM

Query string: Given CC(C)(CN)c1cccc(C(=O)NCC(=O)Nc2nc(-c3cccc(-c4ccnc(N)c4)c3)cs2)c1 , respond with its IC50.
Result string: 0.1 to 1 µM

Query string: Determine its reported IC50: CC1(CO)CCc2ccc(C(=O)NCC(=O)Nc3nc(-c4cccc(-c5ccncc5)c4)cs3)cc21 (single isomer, unassigned) [Compound 105]
Result string: < 0.1 µM

Query string: Answer with the recorded IC50 for the compound listed here: CC(C)S(=O)(=O)c1cccc(C(=O)NCC(=O)Nc2nc(-c3cccc(-c4ccnc(CO)c4)c3)cs2)c1
Result string: 0.1 to 1 µM

---

# Lookup of reported BRM Max % Inhibition keyed by entry
Molecular target: BRM (Homo sapiens, UniProt P51531)
Sequence (P51531 whole entry): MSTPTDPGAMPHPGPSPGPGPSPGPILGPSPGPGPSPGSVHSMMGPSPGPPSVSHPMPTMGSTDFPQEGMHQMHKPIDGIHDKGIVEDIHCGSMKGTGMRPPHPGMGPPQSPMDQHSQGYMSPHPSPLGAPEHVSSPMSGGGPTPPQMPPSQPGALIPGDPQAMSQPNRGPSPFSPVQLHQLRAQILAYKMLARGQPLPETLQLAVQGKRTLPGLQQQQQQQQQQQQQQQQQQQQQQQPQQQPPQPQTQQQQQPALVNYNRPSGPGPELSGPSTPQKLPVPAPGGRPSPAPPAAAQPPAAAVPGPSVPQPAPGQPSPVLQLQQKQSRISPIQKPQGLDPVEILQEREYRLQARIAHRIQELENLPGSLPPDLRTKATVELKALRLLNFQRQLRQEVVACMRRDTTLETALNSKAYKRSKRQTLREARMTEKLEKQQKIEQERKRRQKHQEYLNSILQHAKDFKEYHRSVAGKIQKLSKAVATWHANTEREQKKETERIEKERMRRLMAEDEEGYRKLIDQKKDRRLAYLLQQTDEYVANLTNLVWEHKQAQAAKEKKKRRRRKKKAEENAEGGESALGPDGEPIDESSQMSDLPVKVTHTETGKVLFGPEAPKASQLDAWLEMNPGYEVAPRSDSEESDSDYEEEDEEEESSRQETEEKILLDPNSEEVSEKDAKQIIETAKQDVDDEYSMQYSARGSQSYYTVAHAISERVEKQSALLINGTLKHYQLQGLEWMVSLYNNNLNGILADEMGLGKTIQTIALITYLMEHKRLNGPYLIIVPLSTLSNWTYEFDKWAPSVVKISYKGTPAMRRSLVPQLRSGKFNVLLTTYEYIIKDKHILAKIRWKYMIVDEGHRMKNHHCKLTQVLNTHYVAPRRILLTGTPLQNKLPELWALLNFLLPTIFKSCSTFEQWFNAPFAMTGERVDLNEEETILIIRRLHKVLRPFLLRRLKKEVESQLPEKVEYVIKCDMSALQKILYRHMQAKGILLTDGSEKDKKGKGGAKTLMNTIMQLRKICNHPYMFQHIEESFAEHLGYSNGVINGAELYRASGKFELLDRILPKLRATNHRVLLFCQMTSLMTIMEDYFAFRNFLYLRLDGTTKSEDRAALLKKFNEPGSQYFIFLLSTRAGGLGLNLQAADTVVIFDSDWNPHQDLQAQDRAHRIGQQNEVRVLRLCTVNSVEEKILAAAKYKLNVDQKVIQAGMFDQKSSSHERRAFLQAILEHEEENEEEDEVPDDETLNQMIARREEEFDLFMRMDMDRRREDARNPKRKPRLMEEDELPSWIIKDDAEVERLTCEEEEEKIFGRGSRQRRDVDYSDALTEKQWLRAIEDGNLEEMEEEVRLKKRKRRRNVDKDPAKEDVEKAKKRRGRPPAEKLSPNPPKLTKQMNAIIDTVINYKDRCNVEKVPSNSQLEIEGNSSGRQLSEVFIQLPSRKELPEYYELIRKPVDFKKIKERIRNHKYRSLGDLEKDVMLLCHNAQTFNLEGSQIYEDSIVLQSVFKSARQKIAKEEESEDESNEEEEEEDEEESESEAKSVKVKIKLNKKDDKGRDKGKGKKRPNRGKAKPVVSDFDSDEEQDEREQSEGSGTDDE
Assay: ATPase catalytic activity assay of BRM (ADP-Glo)
Format: biochemical

Completed entries (count: 2):
CC(C)(CN)c1cccc(C(=O)NCC(=O)Nc2nc(-c3cccc(-c4cc(C#N)cc(C#N)c4)c3)cs2)c1 : >90%
C[C@@H]1CN(c2cccc(-c3csc(NC(=O)CNC(=O)c4ccc5c(c4)[C@](C)(CO)CO5)n3)n2)C[C@H](C)O1 (single isomer, unassigned) : >80%

Query string: Return BRM Max % Inhibition for the following compound: C[C@@H]1CN(c2cccc(-c3csc(NC(=O)CNC(=O)c4ccc5c(c4)[C@](C)(C#N)COC5)n3)c2)C[C@H](C)O1
Result string: >95%

---

Molecular target: BRM (Homo sapiens, UniProt P51531)
Test: ATPase catalytic activity assay of BRM (ADP-Glo)
Type: biochemical
Conditions: read-out: BRM IC50 (μM)*
measurement-kind: IC50

// worked examples, IC50 included
C[C@@H]1CN(c2cccc(-c3csc(NC(=O)CNC(=O)c4ccc5c(c4)[C@@](C)(C#N)COC5)n3)c2)C[C@H](C)O1 [Compound 171] : 0.1 to 1 µM
C[C@@H](CO)S(=O)(=O)c1cccc(C(=O)NCC(=O)Nc2nc(-c3cccc(-c4ccncc4)c3)cs2)c1 [Compound 115] : < 0.1 µM
C[C@@H]1CN(c2cccc(-c3csc(NC(=O)CNC(=O)c4ccc5c(c4)C4(CCO5)COC4)n3)n2)C[C@H](C)O1 [Compound 381] : 0.1 to 1 µM
C[C@@H]1CN(c2cccc(-c3csc(NC(=O)CNC(=O)c4ccc5c(c4)[C@](C)(F)COC5)n3)n2)C[C@H](C)O1 [Compound 409] : < 0.1 µM
C[C@@H]1CN(c2cccc(-c3csc(NC(=O)CNC(=O)c4ccc5c(c4)[C@](C)(C#N)CCO5)n3)c2)C[C@H](C)O1 [Compound 172] : < 0.1 µM

Query string: Specify the recorded IC50 for CCC(C)(O)c1cccc(C(=O)NCC(=O)Nc2nc(-c3cccc(-c4ccncc4)c3)cs2)c1 (single isomer, unassigned) [Compound 80] , system: BRM (Homo sapiens, UniProt P51531).
Result string: 1 to 5 µM

Query string: Provide measured IC50 on BRM (Homo sapiens, UniProt P51531) for COc1cc(F)cc(-c2csc(NC(=O)C(C)NC(=O)c3ccc4c(c3)[C@](C)(F)COC4)n2)c1 (stereo in doubt) [Compound 334] please.
Result string: < 0.1 µM

Taken from patent US12685735B2.
